biological target: T1, recombinant human DLL4 (C-terminally His-tagged extracellular domain, R&D Systems) (human, UniProt Q9NR61 25-522, biotinylated in the competition ELISA); assay: ProteOn off-rate screen, periplasmic extract, coated human DLL4
T1 construct: also called rhDLL4; hDLL4
T1 sequence (Q9NR61 25-522): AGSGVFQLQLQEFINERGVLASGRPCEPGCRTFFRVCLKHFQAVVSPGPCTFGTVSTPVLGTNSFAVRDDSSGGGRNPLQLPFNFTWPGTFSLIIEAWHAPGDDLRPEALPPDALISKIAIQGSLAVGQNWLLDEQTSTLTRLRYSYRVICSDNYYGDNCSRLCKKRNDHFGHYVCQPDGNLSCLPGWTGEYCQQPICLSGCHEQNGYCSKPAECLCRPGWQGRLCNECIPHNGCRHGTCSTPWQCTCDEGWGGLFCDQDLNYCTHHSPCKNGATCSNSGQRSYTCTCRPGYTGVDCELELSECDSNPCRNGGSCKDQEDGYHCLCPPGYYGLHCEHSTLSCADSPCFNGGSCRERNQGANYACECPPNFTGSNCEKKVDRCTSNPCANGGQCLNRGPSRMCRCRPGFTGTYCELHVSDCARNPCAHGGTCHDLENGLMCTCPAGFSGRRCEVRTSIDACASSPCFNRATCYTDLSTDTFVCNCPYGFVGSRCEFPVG
quantity_measured: koff (s⁻¹)
Numbers only, in s⁻¹.

1. DLLBII129B02 (VHH) VHH: EVQLVESGGGLVQAGGSLSLSCAASGRTFSSYAMAWYRQAPGKEREYVAAIRWSGGTAYYADSVQGRFTISRDNAKNTVYLQMNSLKPEDTAVYYCANRAPDTRLEPYEYDHWGQGTQVTVSS    7.6e-05
2. DLLBII129G10 (VHH) VHH: EVQLVESGGGLVQAGGSLRLSCAASGRTFSSYAMAWYRQAPGKEREYVAAIRWSGGTAYYADSVQSRFTISRDNAKNTVYLQMNSLKPEDTAVYYCANRAPDTRLEPYEYDHWGQGTQVTVSS    7.3e-05
3. DLLBII129H07 (VHH, not shown: small tags and cut ends) VHH: EVQLVESGGGLVQAGGSLRLSCAASGRTFSSYAMAWYRQAPGKEREYVAAIRWSGGTAYYADSVQGRFTISRDNAKNTVYLQMNSLKPEDTAVYYCANRAPDTRLEPYEYDYWGQGTQVTVSS    7.4e-05
4. DLLBII129E07 (VHH) VHH: EVQLVESGGGLVQAGGSLRLSCSASGRTFSSYAMAWYRQAPGKEREYVAAIRWSGGTAYYPDSVQGRFTISRDNAKNTVYLQMNSLKPEDTAVYYCANRAPDTRLAPYEYDHWGQGTQVTVSS    0.00011

Okay, here is my list. What is koff for each of these?
1. DLLBII130B04 (VHH) VHH: EVQLVESGGGLVQAGGSLRLSCAASGRTFSSYAMAWFRQAPGKEREYVAAIRWSGGTAYYADSVQGRFTISRDNAKNTVYLQMNSLKPEDTAVYYCANRAPDTRLRPYLYDHWGQGTQVTVSS
2. DLLBII129H04 (VHH) VHH: EVQLVESRGGLVQAGGSLRLSCAASGRTFSSYAMAWFRQAPGKEREYVAAIRWSGGTAYYADSVQGRFTISRDNAKNTVYLQMNSLKPEDTAVYYCANRAPDTRLEPYLYDHWGQGTQVTVSS

OUT:
8.3e-05
6.8e-05

Okay, here is my list. What is koff for each of these?
1. DLLBII129E11 (VHH, not shown: small tags and cut ends) VHH: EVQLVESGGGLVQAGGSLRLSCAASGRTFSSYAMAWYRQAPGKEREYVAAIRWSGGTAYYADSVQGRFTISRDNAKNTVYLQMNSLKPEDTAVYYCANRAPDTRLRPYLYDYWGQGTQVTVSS
2. DLLBII129D01 (VHH) VHH: EVQLVESGGGLVQAGGSLRLSCAASGRTFSSYAMAWFRQAPGKEREYVAAIRWSGGTAYYADSVQSRFTITRDNAKNTVYLQMNSLKPEDTAVYYCANRAPDTRLEPYLYDHWGQGTQVTVSS

OUT:
["8e-05", "8.5e-05"]

Okay, here is my list. What is koff for each of these?
1. DLLBII129E03 (VHH) VHH: EVQLVESGGGLVQAGGSLRLSCAASGRTFSSYAMAWFRQAPGKDREYVAAIRWSGGTAYYADSVQGRFTISRDNAKNTVYLQMNSLKPEDTAVYYCANRAPDTRLAPYLYDYWGQGTQVTVSS
2. DLLBII130F06 (VHH, not shown: small tags and cut ends) VHH: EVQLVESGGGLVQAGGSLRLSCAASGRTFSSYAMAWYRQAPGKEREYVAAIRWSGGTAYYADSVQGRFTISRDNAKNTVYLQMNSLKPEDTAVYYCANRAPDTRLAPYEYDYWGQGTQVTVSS

OUT:
1. 0.00011
2. 6.5e-05
